The origin of these recorded values is patent US8735406B2.

- study system: FAAH (Rattus norvegicus)
- Construct: Preparation of Rat Brain Membranes Preparations (FAAH Enzyme Solution); from tissue; host or cells: rat cerebrum (brain membrane preparation)
- Sequence (P97612 whole entry): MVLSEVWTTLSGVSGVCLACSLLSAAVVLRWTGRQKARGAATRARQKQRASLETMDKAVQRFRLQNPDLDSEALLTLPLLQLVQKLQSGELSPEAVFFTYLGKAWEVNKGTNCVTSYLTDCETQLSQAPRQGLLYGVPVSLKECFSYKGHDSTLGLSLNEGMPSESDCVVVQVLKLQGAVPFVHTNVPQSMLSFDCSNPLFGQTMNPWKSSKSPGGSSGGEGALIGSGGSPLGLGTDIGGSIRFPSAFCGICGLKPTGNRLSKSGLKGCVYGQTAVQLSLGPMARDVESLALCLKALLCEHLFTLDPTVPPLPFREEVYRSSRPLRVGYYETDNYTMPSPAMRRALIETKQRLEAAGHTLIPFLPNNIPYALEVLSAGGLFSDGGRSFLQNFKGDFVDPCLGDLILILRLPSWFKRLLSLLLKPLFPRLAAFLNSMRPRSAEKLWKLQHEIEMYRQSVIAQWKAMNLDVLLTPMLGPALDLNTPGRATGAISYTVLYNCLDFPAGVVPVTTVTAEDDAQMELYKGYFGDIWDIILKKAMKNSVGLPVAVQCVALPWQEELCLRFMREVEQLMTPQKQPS
- assay notes: Determination of FAAH inhibitory activity in rat (rat brain membrane preparations, [3H]-anandamide hydrolysis)
- Type: biochemical
- stated conditions: rat brain membrane preparations; 100 nM test substance; read-out: FAAH Inhibition, Inhibition Rate at 100 nM
metric name: inhibition at 0.1 µM (%)

{"record smiles": "CCCc1ccc(CCc2ncc3c(n2)n(C(=O)N(C)C)c(=O)n3C)cc1", "inhibition at 0.1 µM (%)": 104}
{"record smiles": "CN(C)C(=O)n1c(=O)n(C)c2cnc(CCc3cccc(OC(F)F)c3)nc21", "inhibition at 0.1 µM (%)": 79}
{"record smiles": "Cn1c(=O)n(C(=O)N2CCCC2)c2nc(Cc3c(F)cccc3F)ncc21", "inhibition at 0.1 µM (%)": 98}
{"record smiles": "COCc1ncc2c(n1)n(C)c(=O)n2C(=O)N1CC(COc2ccc(F)cc2)C1", "inhibition at 0.1 µM (%)": 103}
{"record smiles": "CN(C)C(=O)n1c(=O)n(C)c2cnc(-c3cccc(OC(F)(F)F)c3)nc21", "inhibition at 0.1 µM (%)": 95}
{"record smiles": "CN(C)C(=O)n1c(=O)n(C)c2cnc(-c3cccc(C(F)(F)F)c3)nc21", "inhibition at 0.1 µM (%)": 101}
{"record smiles": "Cn1c(=O)n(C(=O)N2CCCC2)c2nc(Cc3cc(F)ccc3F)ncc21", "inhibition at 0.1 µM (%)": 89}
{"record smiles": "Cn1c(=O)n(C(=O)N2CCCC2)c2cnc(-c3ccc(OC(F)(F)F)cc3)nc21", "inhibition at 0.1 µM (%)": 78}
{"record smiles": "Cn1c(=O)n(C(=O)N2CCCC2)c2nc(CCc3cccc(C(F)(F)F)c3)ncc21", "inhibition at 0.1 µM (%)": 103}
{"record smiles": "COc1cccc(-c2ncc3c(n2)n(C)c(=O)n3C(=O)N2CC=C(/C=C/c3ccc(Cl)cc3)CC2)c1", "inhibition at 0.1 µM (%)": 101}
{"record smiles": "COc1ccc(-c2ncc3c(n2)n(C)c(=O)n3C(=O)N2CCCC2)cc1F", "inhibition at 0.1 µM (%)": 105}
{"record smiles": "Cn1c(=O)n(C(=O)N2CCCC2)c2nc(-c3ccc(-c4ccccc4)cc3)ncc21", "inhibition at 0.1 µM (%)": 89}
{"record smiles": "CN(C)C(=O)n1c(=O)n(C)c2cnc(COc3ccccc3Cl)nc21", "inhibition at 0.1 µM (%)": 85}
{"record smiles": "COCc1ncc2c(n1)n(C)c(=O)n2C(=O)N1CC(c2ccc(F)cc2)C1", "inhibition at 0.1 µM (%)": 104}
